test system: Rattus norvegicus; test: Tmax in Sprague-Dawley rat assessed as L-dopa level at 0.332 mmol/kg, po; format: ADME, organism-based; conditions: in vivo
Where a SMILES comes first, the peptide text is derived from it. [ ]: non-standard residue; d: D form. Dopa = N[C@@H](Cc1ccc(O)c(O)c1)C(=O)O
Reported Metric: Tmax
State the value, then name its unit.

The recorded Tmax for entry COC(=O)[C@H](Cc1ccc(O)c(O)c1)NC(=O)[C@H](CS)NC(=O)[C@@H](CS)NC(C)=O equals 1.55 h

The recorded Tmax for entry COC(=O)[C@H](CS)NC(=O)[C@H](Cc1ccc(O)c(O)c1)NC(C)=O (Ac-[Dopa]-Cys-OMe) equals 4.11 h

The recorded Tmax for entry COC(=O)[C@H](CCSC)NC(=O)[C@H](Cc1ccc(O)c(O)c1)NC(C)=O (Ac-[Dopa]-Met-OMe) equals 2.25 h

The recorded Tmax for entry N[C@@H](Cc1ccc(O)c(O)c1)C(=O)O [LEVODOPA] equals 1.03 h
